These entries and their values trace back to paper PMC12238253.

- Measurement target: His6-LIMP-2_35-430 (Homo sapiens, UniProt Q14108)
- Sequence (Q14108 35-430): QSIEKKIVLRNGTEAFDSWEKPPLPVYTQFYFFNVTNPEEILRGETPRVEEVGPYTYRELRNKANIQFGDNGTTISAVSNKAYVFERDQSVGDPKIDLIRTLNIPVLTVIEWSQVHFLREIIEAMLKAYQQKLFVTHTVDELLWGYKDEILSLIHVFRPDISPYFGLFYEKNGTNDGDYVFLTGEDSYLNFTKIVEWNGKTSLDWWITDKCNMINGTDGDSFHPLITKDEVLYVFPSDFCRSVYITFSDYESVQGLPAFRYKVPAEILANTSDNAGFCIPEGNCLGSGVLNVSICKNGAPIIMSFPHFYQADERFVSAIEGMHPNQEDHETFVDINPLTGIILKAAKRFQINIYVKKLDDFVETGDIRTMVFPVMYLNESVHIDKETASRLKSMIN
pKd: −log10 of the molar value.

- Structure smiles string: "COc1ccc2cc1Oc1ccc(cc1)C[C@H]1c3cc(c(OC)cc3CCN1C)Oc1c(OC)c(OC)cc3c1[C@H](C2)N(C)CC3"
  pKd: 3.62
- Structure smiles string: "CC(C)CCC[C@@H](C)[C@H]1CC[C@H]2[C@@H]3CC=C4C[C@@H](O)CC[C@]4(C)[C@H]3CC[C@]12C"
  pKd: 5.43
